Biological target: PARP (Homo sapiens, UniProt P09874)
Construct: kit 4684-096-K HT
Sequence (P09874 whole entry): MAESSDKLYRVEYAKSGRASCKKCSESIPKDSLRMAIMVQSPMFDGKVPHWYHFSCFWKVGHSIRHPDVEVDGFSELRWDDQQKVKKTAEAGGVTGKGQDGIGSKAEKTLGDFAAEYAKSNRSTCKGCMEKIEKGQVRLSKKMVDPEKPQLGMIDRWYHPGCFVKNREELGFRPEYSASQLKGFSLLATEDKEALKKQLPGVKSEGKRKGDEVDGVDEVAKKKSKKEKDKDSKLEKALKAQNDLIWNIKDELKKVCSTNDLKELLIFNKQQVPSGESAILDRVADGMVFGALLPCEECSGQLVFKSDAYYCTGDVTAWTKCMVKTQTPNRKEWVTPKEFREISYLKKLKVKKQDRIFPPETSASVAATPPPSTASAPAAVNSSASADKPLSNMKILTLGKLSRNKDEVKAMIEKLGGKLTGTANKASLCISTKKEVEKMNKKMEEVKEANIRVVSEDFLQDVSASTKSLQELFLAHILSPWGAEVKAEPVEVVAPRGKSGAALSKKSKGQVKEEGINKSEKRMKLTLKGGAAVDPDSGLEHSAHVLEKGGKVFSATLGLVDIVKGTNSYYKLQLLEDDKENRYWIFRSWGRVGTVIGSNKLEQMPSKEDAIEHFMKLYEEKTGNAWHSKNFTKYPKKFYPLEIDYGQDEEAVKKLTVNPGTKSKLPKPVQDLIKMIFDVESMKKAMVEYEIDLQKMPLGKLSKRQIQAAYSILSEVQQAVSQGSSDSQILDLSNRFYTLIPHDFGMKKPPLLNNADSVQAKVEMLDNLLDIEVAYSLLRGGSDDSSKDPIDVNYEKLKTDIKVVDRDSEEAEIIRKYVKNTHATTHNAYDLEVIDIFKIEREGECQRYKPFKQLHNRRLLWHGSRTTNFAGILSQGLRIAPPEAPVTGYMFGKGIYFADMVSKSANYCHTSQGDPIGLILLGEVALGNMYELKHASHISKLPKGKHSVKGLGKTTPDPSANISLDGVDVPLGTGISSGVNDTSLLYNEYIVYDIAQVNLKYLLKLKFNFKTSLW
Assay: PARP ELISA (ELISA-based colorimetric PARP/Apoptosis Assay kit), inhibition of PARP catalytic activity
Settings: pIC50 = -log10 IC50 (molar); 0.1 nM PARP stock, 100 μM NAD+ stock with activated DNA, 10 min catalysis

{"Compound": "CNC(=O)c1ccc(N2CCN(Cc3cnc4c(c3)[nH]c(=O)n3cccc43)CC2)c(F)c1 [Example 9]", "IC50": "≤ 10 nM"}
{"Compound": "CNC(=O)c1ccc(N2CCN(Cc3cnc4c(c3)[nH]c(=O)n3cccc43)CC2)c(C)c1 [Example 7]", "IC50": "≤ 10 nM"}
{"Compound": "CCNC(=O)c1ccc(N2CCN(Cc3cnc4c(c3)[nH]c(=O)n3cccc43)CC2)c(Cl)c1 [Example 6]", "IC50": "≤ 10 nM"}
{"Compound": "CCNC(=O)c1ccc(N2CCN(Cc3cnc4c(c3)[nH]c(=O)n3cccc43)CC2)c(F)c1 [Example 10]", "IC50": "≤ 10 nM"}
{"Compound": "CNC(=O)c1ccc(N2CCN(Cc3cnc4c(c3)[nH]c(=O)n3cccc43)CC2)c(Cl)c1 [Example 5]", "IC50": "≤ 10 nM"}
{"Compound": "CNC(=O)c1ccc(N2CCN(Cc3cnc4c(c3)[nH]c(=O)n3cccc43)CC2)cc1 [Example 3]", "IC50": "≤ 10 nM"}
{"Compound": "CCNC(=O)c1ccc(N2CCN(Cc3cnc4c(c3)[nH]c(=O)n3cccc43)CC2)c(C)c1 [Example 8]", "IC50": "≤ 10 nM"}
{"Compound": "O=C(NC1CC1)c1ccc(N2CCN(Cc3cnc4c(c3)[nH]c(=O)n3cccc43)CC2)cc1 [Example 4]", "IC50": "≤ 10 nM"}
{"Compound": "CCNC(=O)c1ccc(N2CCN(Cc3cnc4c(c3)[nH]c(=O)n3cccc43)CC2)cc1 [Example 2]", "IC50": "≤ 10 nM"}
